# protocol.description: qHTS for Inhibitors of the Functional Ribonucleoprotein Complex (vRNP) of Lymphocytic Choriomeningitis Arenaviruses (LCMV): Viability assay - alamar blue signal for LCMV Primary Screen (AID 1347085); further: nearly all actives have a fitted effect of over 80% in size; further: potency means the concentration at half of the fitted maximal effect
# measurement.setup: alamar blue viability counter-screen, LCMV vRNP screen cells; series mostly up to 57.5 µM
Records with an inconclusive call do not appear. Activity calls are given as the source filed them. The call rests on the fitted dose curve; tested in HEK293 reporter line.
observed.property: Potency

Recorded Potency, per entry:
Sure, the documented Potency for `CCCn1c(=O)c2c(ncn2C)n(CCC)c1=O` is inactive

Sure, the documented Potency for CC(c1c(O)c2ccccc2[nH]c1=O)C1(C)CCC(O)C(C)(C)O1 (stereo not given) is inactive

Sure, the documented Potency for `O=C1Nc2ccccc2C(=O)N2CCC[C@@H]12` is inactive

Sure, the documented Potency for CC(C)=CCCC(C)C=O (stereo not given) is inactive

Sure, the documented Potency for `O=C1NC(=O)C(=Cc2ccc3nccc(-c4ccncc4)c3c2)S1` is 0.273 µM (active)

Batch request: Potency for each of the following compounds.
1. CN1CCN(c2cccc(Nc3nc4c(-c5ccc(S(C)(=O)=O)cc5)cccn4n3)c2)CC1
2. Cc1ccc2c(c1)C(=O)c1ccccc1C2=O
3. OCC1OC(n2cnc3c(NCc4ccccc4O)ncnc32)C(O)C1O (stereo not given)
4. OC(CCN1CCCCC1)(c1ccccc1)C1CCCCC1 (stereo not given)
5. O=C1C[C@@H](c2ccc(O)cc2)Oc2cc(O)cc(O)c21
6. O=C(Cc1ccc(-c2ccc(OCCN3CCOCC3)cc2)cn1)NCc1ccccc1
7. CCC(=O)NCC[C@@H]1CCc2ccc3c(c21)CCO3
8. CN[C@@H](Cc1c[nH]c2ccccc12)C(=O)O

["inactive", "inactive", "4.47 µM (active)", "inactive", "inactive", "0.0544 µM (active)", "inactive", "inactive"]

Batch request: Potency for each of the following compounds.
1. COc1c2ccoc2nc2c(OC)c(OCC(OC(C)=O)C(C)(C)O)ccc12 (stereo not given)
2. C#CCn1c(=O)c2c(ncn2C)n(C)c1=O
3. C[C@@H]1C(=O)NC2=Nc3cccc(Cl)c3CN21
4. CO/N=C(\C(=O)N[C@@H]1C(=O)N2C(C(=O)O)=C(CSc3nc(=O)c(O)nn3C)CSC12)c1csc(N)n1 (stereo not given in full)

inactive
inactive
inactive
inactive

Batch request: Potency for each of the following compounds.
1. N#C/C(=C\c1ccc(O)c(O)c1)C(=O)NCCc1ccccc1
2. CC(=O)O[C@H]1CC[C@@]2(C)[C@H](C1)C(=O)C[C@H]1[C@@H]3CC[C@@H]4[C@@H](CN5C[C@@H](C)CC[C@H]5[C@@]4(C)O)[C@@H]3C[C@@H]12
3. C[C@H](NCc1ccc(OCc2cccc(F)c2)cc1)C(N)=O

1. inactive
2. inactive
3. 38.5 µM (active)
